SYSTEM_UNDER_TEST: SERCA2a (Cavia porcellus, UniProt A0A286XD73)
Sequence (A0A286XD73 1-997): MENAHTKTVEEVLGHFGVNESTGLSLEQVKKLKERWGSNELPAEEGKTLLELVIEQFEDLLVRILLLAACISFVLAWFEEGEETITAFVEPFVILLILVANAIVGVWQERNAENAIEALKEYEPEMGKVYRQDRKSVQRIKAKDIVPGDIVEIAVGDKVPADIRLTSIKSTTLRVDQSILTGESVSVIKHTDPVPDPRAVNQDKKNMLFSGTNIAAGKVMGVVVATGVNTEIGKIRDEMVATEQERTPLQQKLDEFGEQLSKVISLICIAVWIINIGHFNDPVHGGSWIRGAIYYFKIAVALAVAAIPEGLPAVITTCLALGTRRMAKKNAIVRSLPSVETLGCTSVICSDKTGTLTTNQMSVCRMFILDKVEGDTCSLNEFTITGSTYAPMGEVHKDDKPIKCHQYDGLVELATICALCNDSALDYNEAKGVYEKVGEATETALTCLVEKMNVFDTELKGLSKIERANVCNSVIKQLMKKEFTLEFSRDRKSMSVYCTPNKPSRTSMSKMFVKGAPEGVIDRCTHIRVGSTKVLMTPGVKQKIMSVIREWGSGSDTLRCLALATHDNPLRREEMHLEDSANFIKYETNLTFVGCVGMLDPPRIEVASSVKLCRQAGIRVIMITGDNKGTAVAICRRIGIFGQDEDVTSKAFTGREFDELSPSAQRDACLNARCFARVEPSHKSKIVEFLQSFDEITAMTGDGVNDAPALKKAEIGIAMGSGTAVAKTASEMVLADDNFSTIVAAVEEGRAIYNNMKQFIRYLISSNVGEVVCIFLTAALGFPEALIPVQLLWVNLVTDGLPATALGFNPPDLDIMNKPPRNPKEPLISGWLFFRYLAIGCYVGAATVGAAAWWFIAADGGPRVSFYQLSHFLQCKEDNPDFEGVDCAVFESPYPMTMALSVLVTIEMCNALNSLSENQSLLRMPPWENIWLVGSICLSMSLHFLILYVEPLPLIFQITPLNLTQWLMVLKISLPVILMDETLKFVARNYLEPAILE
EXPERIMENT: SERCA2a ATPase activity in heart-derived SR microsomes from normal guinea-pig
Type: biochemical
PROTOCOL_CONDITIONS: compound 10 nM, read-out: Kd Ca2+ (nM) mean ± SD
MEASURED_PARAMETER: Kd (nM)
Give the value in nM but do not write nM after it.

- C[C@]12CC/C(=C/CCC(=O)O)CC1[C@@H](O)C[C@@H]1[C@@H]2CC[C@]2(C)C(=O)CC[C@@H]12 (stereo partly drawn) [CVie202]: 448
- C[C@]12CC/C(=C\CCC(=O)O)CC1[C@@H](O)C[C@@H]1[C@@H]2CC[C@]2(C)C(=O)CC[C@@H]12 (stereo partly drawn) [CVie201]: 459
- C[C@]12CC[C@H](CCCC(=O)O)CC1[C@H](O)C[C@@H]1[C@@H]2CC[C@]2(C)C(=O)CC[C@@H]12 (stereo partly drawn) [CVie215]: 459

Challenge: Identify the reported Kd for the following entry. CCOC(=O)C[C@H]1CC[C@]2(C)C3CC[C@]4(C)C(=O)CCC4C3C[C@H](O)C2C1 (stereo partly drawn) [CVie213]
Response given: 432

Challenge: Give me measured Kd, please, for this molecule: C[C@]12CC/C(=C\CCC(=O)O)CC1[C@H](O)C[C@@H]1[C@@H]2CC[C@]2(C)C(=O)CC[C@@H]12 (stereo partly drawn) [CVie203]
Response given: 418

Challenge: Read the entry C[C@]12CC/C(=N/OCCN)C[C@@H]1C(=O)C[C@@H]1[C@@H]2CC[C@]2(C)C(=O)CC[C@@H]12 [Istaroxime, reference compound] and write its reported Kd.
Response given: 464

* * *

SYSTEM_UNDER_TEST: SERCA2a (Cavia porcellus)
EXPERIMENT: SERCA2a ATPase activity in heart-derived SR microsomes from normal guinea-pig
Type: biochemical
PROTOCOL_CONDITIONS: read-out: Kd Ca2+ (nM) mean ± SD, compound 100 nM
Experimental: SERCA2a ATPase Activity in Heart-Derived SR Microsomes from Normal Quinea-Pig SERCA2a activity was measured in vitro as ^32P-ATP hydrolysis at different Ca^2+ concentrations (100-4000 nM) in the absence and presence of the tested compounds, as described (Micheletti R. et al., Am J Card 2007, 99:24A-32A). […] Dose-response curves were fitted by using a sigmoidal equation and the activity at the maximal velocity (Vmax) and the Kd for Ca^2+ were calculated (Synergy Software KaleidaGraph 3.6). […]
Examples of molecules with documented Kd follow.
Write the number in nM without appending the unit.

• C[C@]12CC[C@H](CCCC(=O)O)CC1[C@@H](O)CC1C2CC[C@]2(C)C(=O)CCC12 (stereo partly shown) = 427
• C[C@]12CC/C(=C\CC3CNC3)CC1[C@@H](O)C[C@@H]1[C@@H]2CC[C@]2(C)C(=O)CC[C@@H]12 (stereo partly shown) = 656
• C[C@]12CC[C@H](CCC3CCNCC3)CC1[C@@H](O)C[C@@H]1[C@@H]2CC[C@]2(C)C(=O)CC[C@@H]12 (stereo partly shown) = 406

Challenge: State its Kd: C[C@]12CC[C@H](CC(=O)O)CC1C(O)CC1C2CC[C@]2(C)C(=O)CCC12 (stereo in doubt)
Response given: 443

Challenge: Supply recorded Kd for C[C@]12CC[C@H](CCC3CNC3)CC1[C@@H](CO)[C@@H](O)C1C2CC[C@]2(C)C(=O)CCC12 (stereo partly shown) here.
Response given: 356

Challenge: For the molecule C[C@]12CC[C@H](CCC3CNC3)CC1[C@@H](CO)C(=O)C1C2CC[C@]2(C)C(=O)CCC12 (stereo partly shown) , give its measured Kd value.
Response given: 390

Challenge: Complete the entry with Kd for CCOC(=O)CCCCC[C@H]1CC[C@]2(C)C3CC[C@]4(C)C(=O)CCC4C3C[C@H](O)C2C1 (stereo partly shown)
Response given: 587

* * *

# bioavailability per record follows
EXPERIMENT: in vivo
Set-up: dose or concentration left out as unconfirmed
PROTOCOL_CONDITIONS: rat
Counter-ions that a name gives are not always drawn.
State the answer as a number, implicitly in %.

- C[C@]12CC[C@H](CC(=O)O)CC1C(O)CC1C2CC[C@]2(C)C(=O)CCC12 (stereo in doubt) [CVie216-salt]: 16.9

Okay, next one:
Challenge: Note down bioavailability recorded for C[C@]12CC[C@H](CCCC(=O)O)CC1[C@@H](O)CC1C2CC[C@]2(C)C(=O)CCC12 (some centres unmarked) [CVie214-salt]
Response given: 41.5

* * *

SYSTEM_UNDER_TEST: SERCA2a (Cavia porcellus)
EXPERIMENT: SERCA2a ATPase activity in heart-derived SR microsomes from normal guinea-pig
Assay type: biochemical
PROTOCOL_CONDITIONS: compound 100 nM
# Lookup of reported % change in Ca2+ Kd vs control (negative = decrease) keyed by entry
// units = %*; emit number, no label

Solved entries (count: 5):
- CCOC(=O)CCCCC[C@H]1CC[C@]2(C)C3CC[C@]4(C)C(=O)CCC4C3C[C@H](O)C2C1 (some centres unmarked): −19.1
- C[C@]12CC/C(=C\CCC(=O)O)CC1[C@@H](O)C[C@@H]1[C@@H]2CC[C@]2(C)C(=O)CC[C@@H]12 (some centres unmarked): −15
- C[C@]12CC=C(CCC3CCNCC3)CC1[C@@H](O)C[C@@H]1[C@@H]2CC[C@]2(C)C(=O)CC[C@@H]12 (some centres unmarked) [CVie208, hydroiodide]: −19.1
- CCOC(=O)C[C@H]1CC[C@]2(C)C3CC[C@]4(C)C(=O)CCC4C3C[C@H](O)C2C1 (some centres unmarked): −23
- C[C@]12CC[C@H](CCC3CNC3)CC1[C@@H](CO)[C@@H](O)C1C2CC[C@]2(C)C(=O)CCC12 (some centres unmarked): −20.7

Turning now to a further record.
Challenge: Name the recorded % change in Ca2+ Kd vs control (negative = decrease) of the item C[C@]12CC/C(=C/CC3CNC3)CC1[C@@H](O)C[C@@H]1[C@@H]2CC[C@]2(C)C(=O)CC[C@@H]12 (some centres unmarked) in your answer.
Response given: −13.7

* * *

In this section, each of the molecules is paired with its reported LD50 at 24 h.
EXPERIMENT: Acute toxicity in the mouse
PROTOCOL_CONDITIONS: Albino Swiss CD-1, in vivo, oral, os
Protocol: The acute toxicity of the tested compound CVie214-salt and CVie216-salt have been determined in the mouse (Albino Swiss CD-1, body weight 30 g). Compounds have been orally administered or intravenously injected at increasing doses to identify the dose causing 50% mortality. Mortality occurred within 30 min after the administration and survival after 24 h. As comparison, the acute toxicity for the reference compounds Digoxin and Istaroxime were also included. […]
Counter-ions that a name gives are not always drawn.

These solved cases illustrate the format of a correct answer.
* C[C@]12CC[C@H](CC(=O)O)CC1C(O)CC1C2CC[C@]2(C)C(=O)CCC12 (stereo in doubt) [CVie216-salt] | > 700 mg/kg
* C[C@]12CC/C(=N/OCCN)C[C@@H]1C(=O)C[C@@H]1[C@@H]2CC[C@]2(C)C(=O)CC[C@@H]12 [Istaroxime, reference compound] | 200 mg/kg

For the next question, use this molecule.
Challenge: State its LD50 at 24 h: C[C@]12CC[C@H](CCCC(=O)O)CC1[C@@H](O)CC1C2CC[C@]2(C)C(=O)CCC12 (stereo partly drawn) [CVie214-salt]
Response given: > 800 mg/kg

* * *

Kd for assorted compounds
SYSTEM_UNDER_TEST: SERCA2a (Cavia porcellus)
EXPERIMENT: SERCA2a ATPase activity in heart-derived SR microsomes from normal guinea-pig
Format: biochemical
PROTOCOL_CONDITIONS: compound 100 nM, read-out: Kd Ca2+ (nM) mean ± SD
Expressed in nM, but write only the number.

- C[C@]12CC=C(CCC3CCNCC3)CC1[C@@H](O)C[C@@H]1[C@@H]2CC[C@]2(C)C(=O)CC[C@@H]12 (stereo partly drawn) [CVie208, hydroiodide]: 362
- C[C@]12CC[C@H](CCC3CCNCC3)CC1[C@@H](CO)C(=O)[C@@H]1[C@@H]2CC[C@]2(C)C(=O)CC[C@@H]12 (stereo partly drawn) [CVie411]: 428
- C[C@]12CC/C(=C/CCC(=O)O)CC1[C@@H](O)C[C@@H]1[C@@H]2CC[C@]2(C)C(=O)CC[C@@H]12 (stereo partly drawn) [CVie202]: 436
- C[C@]12CC/C(=C/CCC(=O)O)CC1[C@H](O)C[C@@H]1[C@@H]2CC[C@]2(C)C(=O)CC[C@@H]12 (stereo partly drawn) [CVie204]: 493
- CCOC(=O)C[C@H]1CC[C@]2(C)C3CC[C@]4(C)C(=O)CCC4C3C[C@H](O)C2C1 (stereo partly drawn) [CVie213]: 378

Challenge: For the compound C[C@]12CC/C(=C\CCC(=O)O)CC1[C@H](O)C[C@@H]1[C@@H]2CC[C@]2(C)C(=O)CC[C@@H]12 (stereo partly drawn) [CVie203] , report Kd.
Response given: 386

Challenge: Provide only the value of recorded Kd for C[C@]12CC/C(=C\CCC(=O)O)CC1[C@@H](O)C[C@@H]1[C@@H]2CC[C@]2(C)C(=O)CC[C@@H]12 (stereo partly drawn) [CVie201]
Response given: 454

Challenge: Item C[C@]12CC[C@H](CCCC(=O)O)CC1[C@H](O)C[C@@H]1[C@@H]2CC[C@]2(C)C(=O)CC[C@@H]12 (stereo partly drawn) [CVie215] : provide Kd
Response given: 437

Challenge: Item C[C@]12CC/C(=N/OCCN)C[C@@H]1C(=O)C[C@@H]1[C@@H]2CC[C@]2(C)C(=O)CC[C@@H]12 [Istaroxime, reference compound] : provide Kd
Response given: 462

Source listed as patent US12503484B2.
